- Test system: HT-29
- Assay Comment: Cytotoxicity against human HT29 cells after 48 hrs by SRB assay
- Type: functional, cell-based
- Assay Setup: Homo sapiens, HT-29, 48 h
Binary call on GI50 with cut-off 2000 nM: strictly below means fulfilled, and equality or higher means not fulfilled.

Take a look at these entries with their results.
query: Quick check: does C/C=C1\NC(=O)[C@H](Cc2cccs2)NC(=O)[C@@H](C(C)C)NC(=O)[C@@H]([C@H](C)CC)NC(=O)[C@H](NC(=O)[C@H](NC(=O)[C@H](CCCN)NC(=O)[C@H]2CCCN2C(=O)[C@H](NC(=O)[C@@H](NC(=O)[C@@H](NC(=O)[C@H](NC(=O)CC[C@@H](C)CC)C(C)C)[C@@H](C)O)C(C)C)C(C)C)[C@H](C)CC)[C@H](C)OC(=O)[C@H](C(C)C)NC1=O have GI50 under 2000 nM?
result: fulfilled

query: Quick check: does CC[C@@H](C)[C@@H](NC(=O)[C@H](CCCN)NC(=O)[C@H]1CCCN1C(=O)[C@H](NC(=O)[C@@H](NC(=O)[C@@H](NC(=O)[C@H](NC(=O)CCCC(C)C)C(C)C)[C@@H](C)O)C(C)C)C(C)C)C(=O)N[C@H]1C(=O)N[C@H]([C@H](C)CC)C(=O)N[C@H](C(C)C)C(=O)N[C@@H](Cc2ccccc2)C(=O)N/C(=C\c2ccccc2)C(=O)N[C@@H](C(C)C)C(=O)O[C@H]1C have GI50 under 2000 nM?
result: not fulfilled

---
query: Quick check: does C/C=C1\NC(=O)[C@H](Cc2ccccc2)NC(=O)[C@@H](C(C)C)NC(=O)[C@@H]([C@H](C)CC)NC(=O)[C@H](NC(=O)[C@H](NC(=O)[C@H](CCCN)NC(=O)[C@H]2CCCN2C(=O)[C@H](NC(=O)[C@@H](NC(=O)[C@@H](NC(=O)[C@H](NC(=O)C(F)(F)C(F)(F)C(F)(F)C(F)(F)C(F)(F)C(F)(F)F)C(C)C)[C@@H](C)O)C(C)C)C(C)C)[C@H](C)CC)[C@H](C)OC(=O)[C@H](C(C)C)NC1=O have GI50 under 2000 nM?
result: fulfilled

query: Quick check: does C/C=C1\NC(=O)[C@H](Cc2ccccc2)NC(=O)[C@@H](C(C)C)NC(=O)[C@@H]([C@H](C)CC)NC(=O)[C@H](NC(=O)[C@H](NC(=O)[C@H](CCCN)NC(=O)[C@H]2CCCN2C(=O)[C@H](NC(=O)[C@@H](NC(=O)[C@@H](NC(=O)[C@H](NC(=O)CCCC(C)C)C(C)C)[C@@H](C)O)C(C)C)C(C)C)[C@H](C)CC)[C@H](C)OC(=O)[C@H](C(C)C)NC1=O [KAHALALIDE F] have GI50 under 2000 nM?
result: fulfilled

query: Quick check: does C/C=C1\NC(=O)[C@H](Cc2ccccc2)NC(=O)[C@@H](C(C)C)NC(=O)[C@@H]([C@H](C)CC)NC(=O)[C@H](NC(=O)[C@H](NC(=O)[C@H](NC(=O)[C@@H](NC(=O)[C@@H](NC(=O)[C@H](NC(=O)CCCC(C)C)C(C)C)[C@@H](C)O)C(C)C)C(C)C)[C@H](C)CC)[C@H](C)OC(=O)[C@H](C(C)C)NC1=O have GI50 under 2000 nM?
result: not fulfilled

query: Quick check: does C/C=C1\NC(=O)[C@H](Cc2ccccc2)NC(=O)[C@@H](C(C)C)NC(=O)[C@@H]([C@H](C)CC)NC(=O)[C@H](NC(=O)[C@H](NC(=O)[C@H](CCCN)NC(=O)[C@H]2CCCN2C(=O)[C@H](NC(=O)[C@@H](NC(=O)[C@@H](NC(=O)[C@H](NC(=O)CCCC(C)C)C(C)C)[C@@H](C)O)C(C)C)C(C)C)[C@H](C)CC)COC(=O)[C@H](C(C)C)NC1=O have GI50 under 2000 nM?
result: fulfilled

query: Quick check: does C/C=C1\NC(=O)[C@H](Cc2ccccc2)NC(=O)[C@@H](C(C)C)NC(=O)[C@@H]([C@H](C)CC)NC(=O)[C@H](NC(=O)[C@H](NC(=O)[C@H](CCCN)NC(=O)[C@H]2CCCN2C(=O)[C@H](NC(=O)[C@@H](NC(=O)[C@@H](NC(=O)CNC(=O)CCCC(C)C)[C@@H](C)O)C(C)C)C(C)C)[C@H](C)CC)[C@H](C)OC(=O)[C@H](C(C)C)NC1=O have GI50 under 2000 nM?
result: not fulfilled

Hello, the source for this data is ChEMBL document CHEMBL1156597, in case you need it.
